IC50, Prostaglandin G/H synthase 1 (Homo sapiens, UniProt P23219): measured values
Enter your answer as a number in µM; do not include the unit.

NS(=O)(=O)c1ccc(/C=N/c2ccc(F)cc2)cc1 : 80.2
COc1ccc(/C=N/c2ccc(S(N)(=O)=O)cc2)cc1O : 43.8
NS(=O)(=O)c1ccc(/N=C/c2ccc(O)c(C(=O)O)c2)cc1 : 85.1
NS(=O)(=O)c1ccc(/N=C/c2cccc([N+](=O)[O-])c2)cc1 : 106
COC(=O)c1cc(/N=C/c2ccc(S(N)(=O)=O)cc2)ccc1O : 24

stdin: Given the entry "COC(=O)c1ccc(/C=N/c2ccc(S(N)(=O)=O)cc2)cc1" , what IC50 was observed with Prostaglandin G/H synthase 1 (Homo sapiens, UniProt P23219)?
stdout: 184

stdin: Given the entry "Cc1ccc(/N=C/c2ccc(S(N)(=O)=O)cc2)cc1" , what IC50 was observed with Prostaglandin G/H synthase 1 (Homo sapiens, UniProt P23219)?
stdout: 63.2

stdin: Given the entry "CN(C)c1ccc(/C=N/c2ccc(S(N)(=O)=O)cc2)cc1" , what IC50 was observed with Prostaglandin G/H synthase 1 (Homo sapiens, UniProt P23219)?
stdout: 196

stdin: Given the entry "COc1ccc(/C=N/c2ccc(S(N)(=O)=O)cc2)cc1OC" , what IC50 was observed with Prostaglandin G/H synthase 1 (Homo sapiens, UniProt P23219)?
stdout: 110

stdin: Given the entry "NS(=O)(=O)c1ccc(/N=C/c2ccccc2)cc1" , what IC50 was observed with Prostaglandin G/H synthase 1 (Homo sapiens, UniProt P23219)?
stdout: 108

stdin: Given the entry "COC(=O)c1ccc(/N=C/c2ccc(S(N)(=O)=O)cc2)cc1" , what IC50 was observed with Prostaglandin G/H synthase 1 (Homo sapiens, UniProt P23219)?
stdout: 56.7

stdin: Given the entry "CN(C)c1ccc(/N=C/c2ccc(S(N)(=O)=O)cc2)cc1" , what IC50 was observed with Prostaglandin G/H synthase 1 (Homo sapiens, UniProt P23219)?
stdout: 64.4

stdin: Given the entry "NS(=O)(=O)c1ccc(/C=N/c2ccc(C(F)(F)F)cc2)cc1" , what IC50 was observed with Prostaglandin G/H synthase 1 (Homo sapiens, UniProt P23219)?
stdout: 43.9

stdin: Given the entry "COc1cc(/C=N/c2ccc(S(N)(=O)=O)cc2)cc(OC)c1" , what IC50 was observed with Prostaglandin G/H synthase 1 (Homo sapiens, UniProt P23219)?
stdout: 110

====

- TARGET ENTITY: Prostaglandin G/H synthase 2 (Homo sapiens)
- Sequence (P35354 whole entry): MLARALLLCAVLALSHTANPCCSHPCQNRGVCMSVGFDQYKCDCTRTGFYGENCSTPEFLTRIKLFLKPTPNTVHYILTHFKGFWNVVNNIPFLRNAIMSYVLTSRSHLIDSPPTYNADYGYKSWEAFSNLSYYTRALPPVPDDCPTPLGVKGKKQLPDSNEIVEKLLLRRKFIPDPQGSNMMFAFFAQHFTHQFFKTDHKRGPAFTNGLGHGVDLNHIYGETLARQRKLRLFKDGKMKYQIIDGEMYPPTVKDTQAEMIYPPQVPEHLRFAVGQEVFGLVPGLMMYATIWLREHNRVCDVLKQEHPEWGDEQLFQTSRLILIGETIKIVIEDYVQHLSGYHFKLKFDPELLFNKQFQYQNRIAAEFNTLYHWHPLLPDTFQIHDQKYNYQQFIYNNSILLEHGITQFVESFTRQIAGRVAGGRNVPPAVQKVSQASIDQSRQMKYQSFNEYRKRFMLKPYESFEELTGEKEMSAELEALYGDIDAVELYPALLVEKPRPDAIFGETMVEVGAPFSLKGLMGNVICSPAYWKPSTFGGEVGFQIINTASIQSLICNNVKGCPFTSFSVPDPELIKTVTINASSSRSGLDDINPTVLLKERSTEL
- TEST DESCRIPTION: Inhibition of COX2 in human whole blood assessed as effect on LPS-stimulated PGE2 production
Property: pIC50; scope: individual molecules
# pIC50 is unitless: minus log10 of the molar concentration; print number only

stdin: So what's the measured pIC50 for this one? "NS(=O)(=O)c1ccc(/N=C/c2ccc([N+](=O)[O-])cc2)cc1"
stdout: 5.52

stdin: So what's the measured pIC50 for this one? "COc1ccc(/N=C/c2ccc(S(N)(=O)=O)cc2)cc1OC"
stdout: 5.37

stdin: So what's the measured pIC50 for this one? "CN(C)c1ccc(/C=N/c2ccc(S(N)(=O)=O)cc2)cc1"
stdout: 5.47

stdin: So what's the measured pIC50 for this one? "COC(=O)c1ccc(/C=N/c2ccc(S(N)(=O)=O)cc2)cc1"
stdout: 5.56

stdin: So what's the measured pIC50 for this one? "NS(=O)(=O)c1ccc(/C=N/c2ccccc2)cc1"
stdout: 5.51

stdin: So what's the measured pIC50 for this one? "NS(=O)(=O)c1ccc(/N=C/c2ccc(O)c(C(=O)O)c2)cc1"
stdout: 6.13

====

pIC50, Prostaglandin G/H synthase 1 (Homo sapiens, UniProt P23219): measured values
# pIC50 is unitless: minus log10 of the molar concentration; print number only

In the examples that follow, each entry is paired with its recorded pIC50.
NS(=O)(=O)c1ccc(/N=C/c2ccc(O)c(O)c2)cc1 : 4.64
COc1cc(/C=N/c2ccc(S(N)(=O)=O)cc2)ccc1O : 4.11
NS(=O)(=O)c1ccc(/N=C/c2ccc(C(F)(F)F)cc2)cc1 : 3.74
NS(=O)(=O)c1ccc(/N=C/c2cccc(O)c2)cc1 : 4.42
COc1cccc(/C=N/c2ccc(S(N)(=O)=O)cc2)c1 : 3.42

stdin: So what's the measured pIC50 for this one? "NS(=O)(=O)c1ccc(/N=C/c2ccc(F)cc2)cc1"
stdout: 3.80

====

Property: IC50; scope: individual compounds
- TARGET ENTITY: Prostaglandin G/H synthase 1 (Homo sapiens, UniProt P23219)
- Sequence (P23219 whole entry): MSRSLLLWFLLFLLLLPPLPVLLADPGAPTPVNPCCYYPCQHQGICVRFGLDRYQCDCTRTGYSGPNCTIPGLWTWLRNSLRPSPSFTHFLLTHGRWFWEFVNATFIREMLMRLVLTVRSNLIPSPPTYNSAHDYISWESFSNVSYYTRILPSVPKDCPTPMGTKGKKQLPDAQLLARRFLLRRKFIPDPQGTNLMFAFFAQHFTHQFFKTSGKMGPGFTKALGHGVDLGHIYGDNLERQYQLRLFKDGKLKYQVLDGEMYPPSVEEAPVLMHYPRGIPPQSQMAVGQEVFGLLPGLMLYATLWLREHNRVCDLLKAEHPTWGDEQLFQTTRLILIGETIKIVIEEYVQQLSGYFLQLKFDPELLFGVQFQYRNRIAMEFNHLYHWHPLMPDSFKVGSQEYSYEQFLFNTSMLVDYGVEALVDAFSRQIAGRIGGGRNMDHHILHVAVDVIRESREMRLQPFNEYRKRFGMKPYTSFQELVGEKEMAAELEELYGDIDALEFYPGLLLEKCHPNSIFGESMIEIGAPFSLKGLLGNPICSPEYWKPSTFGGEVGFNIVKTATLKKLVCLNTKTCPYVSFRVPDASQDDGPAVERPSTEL
Kindly report the value followed by its unit.

NS(=O)(=O)c1ccc(/C=N/c2ccccc2)cc1 : 63.6 µM
COc1ccc(/C=N/c2ccc(S(N)(=O)=O)cc2)cc1 : 314 µM
COc1ccc(/N=C/c2ccc(S(N)(=O)=O)cc2)cc1 : 60.7 µM
COc1cc(/C=N/c2ccc(S(N)(=O)=O)cc2)cc(OC)c1O : 156 µM
COc1ccc(/N=C/c2ccc(S(N)(=O)=O)cc2)cc1OC : 31.3 µM
NS(=O)(=O)c1ccc(/N=C/c2ccc(O)cc2)cc1 : 148 µM
Cc1ccc(/C=N/c2ccc(S(N)(=O)=O)cc2)cc1 : 190 µM
CCOc1cc(/C=N/c2ccc(S(N)(=O)=O)cc2)ccc1O : 47.9 µM

stdin: Given the entry "NS(=O)(=O)c1ccc(/N=C/c2ccc([N+](=O)[O-])cc2)cc1" , what IC50 was observed with Prostaglandin G/H synthase 1 (Homo sapiens, UniProt P23219)?
stdout: 141 µM

stdin: Given the entry "NS(=O)(=O)c1ccc(/C=N/c2ccc(O)cc2)cc1" , what IC50 was observed with Prostaglandin G/H synthase 1 (Homo sapiens, UniProt P23219)?
stdout: 51.8 µM

stdin: Given the entry "COc1cc(/C=N/c2ccc(S(N)(=O)=O)cc2)cc(OC)c1OC" , what IC50 was observed with Prostaglandin G/H synthase 1 (Homo sapiens, UniProt P23219)?
stdout: 167 µM
